Target: Human ENaC δ, β and γ subunit (Homo sapiens, UniProt P51168+P51170+P51172)
Construct: expressed in transfected cells; host or cells: Xenopus laevis (African clawed frog) oocytes injected with cRNA
Sequence (P51172 1-638 isoform P51172-1): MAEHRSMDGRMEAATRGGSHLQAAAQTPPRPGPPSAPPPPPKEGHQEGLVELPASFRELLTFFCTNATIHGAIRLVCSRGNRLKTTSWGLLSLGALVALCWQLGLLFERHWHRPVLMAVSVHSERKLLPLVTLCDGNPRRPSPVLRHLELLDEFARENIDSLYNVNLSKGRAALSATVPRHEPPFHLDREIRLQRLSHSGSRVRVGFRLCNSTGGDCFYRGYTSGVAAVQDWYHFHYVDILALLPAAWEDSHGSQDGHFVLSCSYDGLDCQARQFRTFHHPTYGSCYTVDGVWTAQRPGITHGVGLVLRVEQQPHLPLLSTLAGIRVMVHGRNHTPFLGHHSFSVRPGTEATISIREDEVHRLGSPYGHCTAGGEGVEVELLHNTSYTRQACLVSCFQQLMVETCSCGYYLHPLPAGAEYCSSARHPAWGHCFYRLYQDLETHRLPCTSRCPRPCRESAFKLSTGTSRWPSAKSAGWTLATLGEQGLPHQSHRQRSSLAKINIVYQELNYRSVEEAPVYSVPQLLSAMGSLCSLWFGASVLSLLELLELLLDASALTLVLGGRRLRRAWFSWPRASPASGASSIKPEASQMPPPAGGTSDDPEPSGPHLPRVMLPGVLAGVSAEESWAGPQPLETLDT
Sequence (P51168 whole entry): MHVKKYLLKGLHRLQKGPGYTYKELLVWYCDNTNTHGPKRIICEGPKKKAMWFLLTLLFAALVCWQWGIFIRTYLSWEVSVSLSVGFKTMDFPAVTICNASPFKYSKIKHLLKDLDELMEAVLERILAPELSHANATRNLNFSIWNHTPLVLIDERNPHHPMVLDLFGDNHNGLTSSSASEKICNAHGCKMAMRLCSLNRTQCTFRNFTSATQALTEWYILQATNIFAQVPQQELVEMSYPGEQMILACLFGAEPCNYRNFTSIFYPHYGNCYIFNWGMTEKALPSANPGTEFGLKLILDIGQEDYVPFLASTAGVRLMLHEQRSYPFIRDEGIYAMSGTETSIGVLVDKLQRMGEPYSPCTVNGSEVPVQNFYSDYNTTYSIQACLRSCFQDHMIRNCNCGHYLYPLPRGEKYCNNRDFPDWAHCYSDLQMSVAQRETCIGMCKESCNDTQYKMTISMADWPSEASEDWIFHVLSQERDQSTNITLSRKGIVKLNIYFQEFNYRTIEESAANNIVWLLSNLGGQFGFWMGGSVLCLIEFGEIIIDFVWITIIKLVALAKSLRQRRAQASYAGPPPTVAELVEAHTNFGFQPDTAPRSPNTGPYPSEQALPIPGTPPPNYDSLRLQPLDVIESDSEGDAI
Sequence (P51170 whole entry): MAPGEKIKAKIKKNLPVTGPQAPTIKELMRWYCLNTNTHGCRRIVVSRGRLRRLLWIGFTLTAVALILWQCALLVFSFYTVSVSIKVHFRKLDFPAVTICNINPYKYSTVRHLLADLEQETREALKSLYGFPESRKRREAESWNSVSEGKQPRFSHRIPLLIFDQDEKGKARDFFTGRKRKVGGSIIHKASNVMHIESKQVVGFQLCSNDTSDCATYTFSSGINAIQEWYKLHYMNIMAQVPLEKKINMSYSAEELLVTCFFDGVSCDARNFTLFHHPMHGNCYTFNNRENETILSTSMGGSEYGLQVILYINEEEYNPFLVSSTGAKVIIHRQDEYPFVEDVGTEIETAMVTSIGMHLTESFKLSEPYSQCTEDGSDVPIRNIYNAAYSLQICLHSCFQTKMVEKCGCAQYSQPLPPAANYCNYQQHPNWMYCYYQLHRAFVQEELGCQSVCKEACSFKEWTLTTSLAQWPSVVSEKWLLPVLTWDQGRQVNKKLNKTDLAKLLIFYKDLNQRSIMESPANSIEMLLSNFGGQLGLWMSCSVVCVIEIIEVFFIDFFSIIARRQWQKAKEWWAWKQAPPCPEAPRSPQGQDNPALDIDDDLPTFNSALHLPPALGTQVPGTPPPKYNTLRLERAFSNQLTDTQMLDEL
Test: Measurement of ENaC activation potency (two electrode voltage clamp current in ENaC-expressing oocyte)
Format: cell-based
Settings: lowest concentration increasing the current value by not less than 10% vs before addition
Provide the recorded MED value (minimum effective dose) for the entries that follow.
Answers are plain numbers, in µM.

1. O=C(NCCc1c[nH]c2ccc(O)cc12)c1cc(Br)ccc1O: 0.3
2. COc1ccc(CCC(=O)N[C@@H](Cc2c[nH]c3ccccc23)C(=O)O)cc1: 3

Count: 8. Required value per item: MED value (minimum effective dose).
1. O=C(CCc1c[nH]c2ccccc12)Nc1c(O)cccc1O
2. O=C(NCCc1c[nH]c2ccc(O)cc12)c1ccccc1O
3. Cc1cc(O)c(C(=O)NCCc2c[nH]c3ccccc23)c(O)c1
4. COC(=O)C(Cc1c[nH]c2cc(F)ccc12)NC(=O)c1c(O)cccc1O (stereo not drawn)
5. COC(=O)[C@H](Cc1ccccc1)NC(=O)c1c(O)cc(O)cc1O
6. O=C(N[C@H](Cc1c[nH]c2ccccc12)C(=O)O)c1cc(O)ccc1O
7. O=C(NCCc1c[nH]c2ccccc12)c1c(O)cc(O)cc1O
8. CC(C)(C)OC(=O)NC(Cc1c[nH]c2ccccc12)C(=O)Nc1c(O)cccc1O (stereo in doubt)

1. 3
2. 3
3. 3
4. 1
5. 1
6. 1
7. 1
8. 10

Origin of the recorded values: patent US20130196050A1
